- protocol.details: Permeability of the compound by PAMPA-BBB assay
- Format: ADME
- test.context: read-out: permeability
result.type: Papp (×10⁻⁶ cm/s)

compound.smiles	Papp (×10⁻⁶ cm/s)
COc1cc(/C=C/C(O)=C/C(=O)/C=C/c2ccc(C)cc2)ccc1O	8.2
COc1ccc(/C=C/C(=O)/C=C(O)/C=C/c2ccc(OC)cc2)cc1	2.8
COc1ccc(/C=C/C(=O)/C=C(O)/C=C/c2ccc(OCc3ccccc3)cc2)cc1	7
COc1cc(/C=C/C(O)=C/C(=O)/C=C/c2ccc(OCc3ccccc3)cc2)ccc1O	7.7

P. O=C(/C=C(O)/C=C/c1ccc(O)cc1)/C=C/c1ccc(O)cc1
Q. COc1cc(/C=C/C(=O)CC(=O)/C=C/c2ccc(O)c(OC)c2)ccc1O
R. O=C(/C=C(O)/C=C/c1ccc(OCc2ccccc2)cc1)/C=C/c1ccc(OCc2ccccc2)cc1
Request: List the 3 entries from lowest Papp to highest Papp value. Returns: the labels listed in the requested order.
Result: Q, R, P
(Q: 2.5 ×10⁻⁶ cm/s, R: 3.6 ×10⁻⁶ cm/s, P: 7.8 ×10⁻⁶ cm/s)

----------
- tested.target: Glycogen synthase kinase-3 beta (Homo sapiens)
- protocol.details: Inhibition of human recombinant GSK3-beta using prephosphorylated polypeptide as substrate incubated for 30 mins by Glo-type luminescence assay
result.type: IC50 (µM)

# count of solved cases: 5
compound.smiles	readout.number
O=C(/C=C(O)/C=C/c1ccc(O)cc1)/C=C/c1ccc(O)cc1	8.39
COc1cc(/C=C/C(O)=C/C(=O)/C=C/c2ccc(OCc3ccccc3)cc2)ccc1O	0.9
COc1cc(/C=C/C(=O)CC(=O)/C=C/c2ccc(O)c(OC)c2)ccc1O	17.9
COc1cc(/C=C/C(O)=C/C(=O)/C=C/c2ccc(C)cc2)ccc1O	2.09
O=C(/C=C/c1ccc(OCc2ccc(F)cc2F)cc1)CC(=O)/C=C/c1ccc(OCc2ccc(F)cc2F)cc1	9.06

A. O=C(/C=C(O)/C=C/c1ccc(OCc2ccccc2)cc1)/C=C/c1ccc(O)cc1
B. O=C(/C=C/c1ccc(OCc2cc(F)cc(F)c2)cc1)CC(=O)/C=C/c1ccc(OCc2cc(F)cc(F)c2)cc1
Request: Which one would you say has the larger IC50 value: A , or B ? Kindly state the label of the option you pick.
Result: B

a. O=C(/C=C/c1ccc(OCc2ccccc2)cc1)CC(=O)/C=C/c1ccc(OCc2ccccc2)cc1
b. O=C(/C=C(O)/C=C/c1ccc(OCc2cccc(F)c2)cc1)/C=C/c1ccc(OCc2cccc(F)c2)cc1
Request: Please compare: a and b . Report which one has the smaller IC50 value. Kindly state the label of the option you pick.
Result: a

----------
- protocol.details: Cytotoxicity against human T67 cells up to 20 uM after 24 hrs by MTT assay
- Assay type: cell-based
- test.context: t67, 24 h
result.type: Activity

# count of solved cases: 5
compound.smiles	Activity
COc1cc(/C=C/C(O)=C/C(=O)/C=C/c2ccc(C)cc2)ccc1O	Non-toxic
COc1cc(/C=C/C(=O)CC(=O)/C=C/c2ccc(O)c(OC)c2)ccc1O	Non-toxic
O=C(/C=C(O)/C=C/c1ccc(OCc2ccccc2)cc1)/C=C/c1ccc(OCc2ccccc2)cc1	Non-toxic
COc1ccc(/C=C/C(=O)/C=C(O)/C=C/c2ccc(OCc3ccccc3)cc2)cc1	Non-toxic
O=C(/C=C(O)/C=C/c1ccc(OCc2ccccc2)cc1)/C=C/c1ccc(O)cc1	Toxic

Here is another compound to look at.
Request: Supply Activity value. Item: COc1cc(/C=C/C(O)=C/C(=O)/C=C/c2ccc(OCc3ccccc3)cc2)ccc1O
Result: Non-toxic

----------
- tested.target: Glycogen synthase kinase-3 beta (Homo sapiens, UniProt P49841)
- Sequence (P49841 whole entry): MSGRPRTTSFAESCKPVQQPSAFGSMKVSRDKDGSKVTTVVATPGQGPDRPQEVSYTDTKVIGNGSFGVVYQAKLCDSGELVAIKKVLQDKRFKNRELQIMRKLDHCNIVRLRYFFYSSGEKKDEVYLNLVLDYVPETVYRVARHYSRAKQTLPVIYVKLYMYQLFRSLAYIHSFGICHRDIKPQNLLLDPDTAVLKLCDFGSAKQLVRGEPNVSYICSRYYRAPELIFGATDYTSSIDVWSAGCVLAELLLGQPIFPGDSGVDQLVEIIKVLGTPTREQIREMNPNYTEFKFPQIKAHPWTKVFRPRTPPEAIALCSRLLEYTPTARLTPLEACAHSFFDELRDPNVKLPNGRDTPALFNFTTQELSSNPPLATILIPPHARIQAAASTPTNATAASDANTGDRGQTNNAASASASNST
- protocol.details: Inhibition of human recombinant GSK3-beta using prephosphorylated polypeptide as substrate incubated for 30 mins by Glo-type luminescence assay
result.type: IC50 (µM)

# count of solved cases: 3
compound.smiles	display.unit	IC50
O=C(/C=C(O)/C=C/c1ccc(OCc2ccccc2)cc1)/C=C/c1ccc(OCc2ccccc2)cc1	µM	2.49
O=C(/C=C(O)/C=C/c1ccc(OCc2ccc(F)cc2F)cc1)/C=C/c1ccc(OCc2ccc(F)cc2F)cc1	µM	9.63
O=C(/C=C(O)/C=C/c1ccc(OCc2ccc(F)cc2)cc1)/C=C/c1ccc(OCc2ccc(F)cc2)cc1	µM	12.8

1. COc1ccc(/C=C/C(=O)CC(=O)/C=C/c2ccc(OC)cc2)cc1
2. O=C(/C=C(O)/C=C/c1ccc(OCc2cc(F)cc(F)c2)cc1)/C=C/c1ccc(OCc2cc(F)cc(F)c2)cc1
3. COc1ccc(/C=C/C(=O)/C=C(O)/C=C/c2ccc(OC)cc2)cc1
4. COc1ccc(/C=C/C(=O)/C=C(O)/C=C/c2ccc(OCc3ccccc3)cc2)cc1
Request: List the 4 entries from lowest IC50 to highest IC50 value. Returns: the labels listed in the requested order.
Result: 3, 4, 2, 1

----------
- tested.target: Beta-secretase 1 (Homo sapiens, UniProt P56817)
- Sequence (P56817 whole entry): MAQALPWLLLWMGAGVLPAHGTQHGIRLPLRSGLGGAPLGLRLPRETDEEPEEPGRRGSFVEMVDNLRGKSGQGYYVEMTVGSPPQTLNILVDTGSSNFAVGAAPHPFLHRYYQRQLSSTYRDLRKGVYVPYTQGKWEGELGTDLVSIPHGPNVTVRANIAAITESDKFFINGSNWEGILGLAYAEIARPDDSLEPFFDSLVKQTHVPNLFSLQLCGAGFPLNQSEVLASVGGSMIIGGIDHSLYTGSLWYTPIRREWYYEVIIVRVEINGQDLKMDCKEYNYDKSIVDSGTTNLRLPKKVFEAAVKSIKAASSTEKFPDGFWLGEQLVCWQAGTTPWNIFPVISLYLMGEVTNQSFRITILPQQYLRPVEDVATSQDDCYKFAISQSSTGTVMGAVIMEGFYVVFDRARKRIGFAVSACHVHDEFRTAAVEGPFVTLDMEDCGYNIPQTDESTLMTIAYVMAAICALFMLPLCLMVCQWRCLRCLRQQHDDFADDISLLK
- protocol.details: Inhibition of human recombinant BACE1 using M-2420 as substrate preincubated for 1 hr followed by substrate addition incubated for 15 mins by FRET assay
result.type: IC50 (nM)

# count of solved cases: 5
compound.smiles	IC50 [nM]
O=C(/C=C(O)/C=C/c1ccc(OCc2ccccc2)cc1)/C=C/c1ccc(O)cc1	2690
O=C(/C=C(O)/C=C/c1ccc(OCc2ccccc2)cc1)/C=C/c1ccc(OCc2ccccc2)cc1	40
O=C(/C=C(O)/C=C/c1ccc(OCc2ccc(F)cc2F)cc1)/C=C/c1ccc(OCc2ccc(F)cc2F)cc1	400
O=C(/C=C(O)/C=C/c1ccc(OCc2ccc(F)cc2)cc1)/C=C/c1ccc(OCc2ccc(F)cc2)cc1	1040
O=C(/C=C(O)/C=C/c1ccc(OCc2cc(F)cc(F)c2)cc1)/C=C/c1ccc(OCc2cc(F)cc(F)c2)cc1	390

I. O=C(/C=C/c1ccc(OCc2ccc(F)cc2F)cc1)CC(=O)/C=C/c1ccc(OCc2ccc(F)cc2F)cc1
II. COc1ccc(/C=C/C(=O)/C=C(O)/C=C/c2ccc(OCc3ccccc3)cc2)cc1
Request: Please compare: I and II . Report which one has the smaller IC50 value. Kindly state the label of the option you pick.
Result: I

a. O=C(/C=C/c1ccc(OCc2ccccc2)cc1)CC(=O)/C=C/c1ccc(OCc2ccccc2)cc1
b. COc1cc(/C=C/C(O)=C/C(=O)/C=C/c2ccc(C)cc2)ccc1O
c. O=C(/C=C(O)/C=C/c1ccc(OCc2cccc(F)c2)cc1)/C=C/c1ccc(OCc2cccc(F)c2)cc1
d. COc1ccc(/C=C/C(=O)/C=C(O)/C=C/c2ccc(OC)cc2)cc1
e. O=C(/C=C/c1ccc(OCc2cc(F)cc(F)c2)cc1)CC(=O)/C=C/c1ccc(OCc2cc(F)cc(F)c2)cc1
Request: List the 5 entries from lowest IC50 to highest IC50 value. Returns: the labels listed in the requested order.
Result: b, e, c, d, a
